Reference for the values: the supplement of paper PMC12042874

Test: amyloid nucleation score (Sup35N fusion, yeast selection) (log enrichment); library NNK2; higher = more nucleation; inactive = no reads after selection;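 further: zero at mode of non-aggregating sequences after 7 days selection at 30°C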
Reported amyloid nucleation score values for the following substances.
experimental-endpoint: amyloid nucleation score

{"columns": ["substance", "experimental-endpoint", "observed-result"],
 "data": [
  ["YSFELGDFRMEKLIRDMVKC", "amyloid nucleation score", -0.932],
  ["IGIMQMIYFVD", "amyloid nucleation score", 5.79],
  ["RTNYWVIAWIYAFGS", "amyloid nucleation score", -0.716],
  ["LVKLEYALSVFRENSGSNLN", "amyloid nucleation score", 1.07],
  ["PACYKDYGSKSPHPPTVGLG", "amyloid nucleation score", -0.159],
  ["RGDSATLVGCNVVMGRRFSL", "amyloid nucleation score", 4.32],
  ["IFLAWMVPAGFWR", "amyloid nucleation score", 0.56],
  ["YHTSQLYWLLRCQSSFNSWG", "amyloid nucleation score", 2.48],
  ["SASFRGG", "amyloid nucleation score", -0.935],
  ["FLQNWKLYRCCLRVASVGGR", "amyloid nucleation score", 4.67],
  ["NRGISLGIHLRPGCMCAAHR", "amyloid nucleation score", 0.005],
  ["VSSPCGRFSFNNNGGKVWTW", "amyloid nucleation score", -0.111],
  ["RRVMRLWMALPCNDMIGCIQ", "amyloid nucleation score", -0.476],
  ["SANSRVGGLGNL", "amyloid nucleation score", 0.717],
  ["GCDLYL", "amyloid nucleation score", -0.256],
  ["SSVRCTYGLNCNQRL", "amyloid nucleation score", 2.92],
  ["SRSVEGLKLWATNSAGHVVA", "amyloid nucleation score", 0.958],
  ["IFRIWRTRGRRSRFVSIEIG", "amyloid nucleation score", -0.802],
  ["CFGRGLCVSIGVVRCTGGPC", "amyloid nucleation score", 0.119],
  ["LSRIRVHSIRLYSVFPVMFC", "amyloid nucleation score", 3.67],
  ["LNEVFDLVPSYCKFSVVRGL", "amyloid nucleation score", -1.14],
  ["RPFDHANRCRSAVYT", "amyloid nucleation score", 1.63],
  ["LFLGYMSLCVVYVLAFGRFE", "amyloid nucleation score", 3.79],
  ["DRRGQQVLGPACRGCWFWPD", "amyloid nucleation score", 0.305],
  ["MLWVWSLSQTLVRTKVRVLS", "amyloid nucleation score", 0.024],
  ["KMTRLLFYWSFGCGLIHLVC", "amyloid nucleation score", -0.464],
  ["FFLYFVFCF", "amyloid nucleation score", 2.67],
  ["AYYYWLGG", "amyloid nucleation score", -0.381],
  ["SQHMLEL", "amyloid nucleation score", -0.633],
  ["LTSNPVPSNLT", "amyloid nucleation score", 3.35],
  ["WAWGCWVHSESVAWSCMCKA", "amyloid nucleation score", 0.476],
  ["GWVKDDWDFTLMRPRFVGRG", "amyloid nucleation score", -0.143],
  ["WGSSFR", "amyloid nucleation score", 0.592],
  ["LNIHLFSVTGLCDEC", "amyloid nucleation score", -0.344],
  ["KGFAKILLGTSCLMSV", "amyloid nucleation score", -0.848],
  ["NTMMGV", "amyloid nucleation score", -0.724],
  ["SETLFEYS", "amyloid nucleation score", -1.55],
  ["DCSDLVSLLCNVRHAHGRWL", "amyloid nucleation score", 4.42],
  ["CTSMGA", "amyloid nucleation score", -0.291],
  ["YAMGGGKGEDDLSCWYDYAC", "amyloid nucleation score", 0.219],
  ["VMNSVHVFQYTSCCLILVGL", "amyloid nucleation score", 6.95],
  ["KENDVNLD", "amyloid nucleation score", 1.5],
  ["FTFILLGYVWRLLMYIPGMR", "amyloid nucleation score", 0.236],
  ["SSRLAKIHSMGWFFIFLGIS", "amyloid nucleation score", -1.22],
  ["FWQSSLDSS", "amyloid nucleation score", 0.213],
  ["LLCCMWFDRWLWTGLAWITV", "amyloid nucleation score", 0.247],
  ["RLMVWSSL", "amyloid nucleation score", 1.87],
  ["ERVNKFLWGGFSERLRLMSQ", "amyloid nucleation score", 0.51],
  ["RNSDGPLCSDGVVHFIRMLV", "amyloid nucleation score", 0.001],
  ["YVATMGKGLNYLSCLEDNAA", "amyloid nucleation score", 0.282]
]}
